assay: Inhibition of NF-kappaB-mediated transcriptional activity transfected in PMA-stimulated HEK293 cells after 24 hrs by luciferase reporter gene assay; assay type: cell-based; settings: HEK293, 24 h
Measured IC50 by item
reported-metric: IC50 (µM)

[[record]]
compound = "C=C1C(=O)O[C@@H]2C3O[C@]3(C)CC/C=C(\\C)CC[C@@H]12 (stereo partly specified)"
experimental_value = 9.76

[[record]]
compound = "C=C1C(=O)O[C@H]2[C@@H]3[C@@H](CC[C@@]3(C)O)C(=C)CC[C@@H]12"
experimental_value = 8.8

[[record]]
compound = "C=C1C(=O)O[C@@H]2[C@@H](O)[C@]3(C)CC[C@H]3[C@](C)(O)CC[C@@H]12"
experimental_value = 2.8

[[record]]
compound = "C=C1C(=O)O[C@@H]2[C@@H](O)[C@]3(C)CC[C@H]3[C@](C)(OC)CC[C@@H]12"
experimental_value = 2.04

[[record]]
compound = "C=C1C(=O)O[C@H]2[C@H]1CC/C(C)=C\\CC[C@@]1(C)O[C@@H]21"
experimental_value = 7.4

[[record]]
compound = "C=C1C(=O)O[C@H]2[C@@H]3[C@@H](CC[C@@]3(C)O)[C@](C)(OC)CC[C@@H]12"
experimental_value = 6

